- Test system: S. aureus RN4220
- Protocol description: growth inhibition call (relative growth <= 0.2)
- Protocol conditions: 50 µM
Screen size: about 39,000 compounds; about 500 (1.3%) were called active. Only a selection was taken, and actives are over-represented in it overall.
Pick one: YES for active, NO for inactive

Recorded results for 4 compounds are shown here.
COCC(=O)Nc1ccc2c(c1)C(=O)N(C)C[C@@H](OC)[C@H](C)CN(Cc1cccc(F)c1)[C@H](C)CO2	NO
CC[C@H](C)[C@H](N)C1=N[C@H](C(=O)N[C@@H](CC(C)C)C(=O)N[C@@H]2CCC(=O)[O][Zn][O]C(=O)C[C@H]3NC(=O)[C@H](Cc4c[nH]cn4)NC(=O)[C@@H](Cc4ccccc4)NC(=O)[C@H]([C@@H](C)CC)NC(=O)[C@@H](CCCN)NC(=O)[C@H](CCCCNC(=O)[C@H](CC(N)=O)NC3=O)NC(=O)[C@H]([C@@H](C)CC)NC2=O)CS1	YES
CC[C@H](C)[C@H](N)C1=N[C@H](C(=O)N[C@@H](CC(C)C)C(=O)N[C@H](CCC(=O)O)C(=O)N[C@H](C(=O)N[C@H]2CCCCNC(=O)[C@H](CC(N)=O)NC(=O)[C@@H](CC(=O)O)NC(=O)[C@H](Cc3cnc[nH]3)NC(=O)[C@@H](Cc3ccccc3)NC(=O)[C@H]([C@@H](C)CC)NC(=O)[C@@H](CCCN)NC2=O)[C@@H](C)CC)CS1	YES
CC(=O)N[C@@H](CCCNC(=N)N)C(=O)N[C@H]1CSSC[C@@H](C(N)=O)NC(=O)[C@H](Cc2c[nH]c3ccccc23)NC(=O)[C@H](CCCNC(=N)N)NC(=O)[C@@H](Cc2ccccc2)NC(=O)[C@H](Cc2cnc[nH]2)NC(=O)[C@@H](C)NC1=O	NO

Next:
Hi, sorry to bother you, what did the test record for "O=C(O)c1ccccc1-c1ccco1" ?
NO
